tested on: LOX IMVI; assay: NCI tumour cell line growth inhibition, 48 h
Calls of active or inactive are those of the source. Cut-off read from the data, not from the text of the source: active = GI50 up to about 1.1 µM and inactive = higher.
Returns: one label drawn from active, inactive

molecule	cat
CN[C@@H](C)[C@@H](NC)c1ccccc1	inactive

Recorded call for CC12CCC3C(CCC4=CC(O)CCC43C=O)C1(O)CCC2c1ccc(=O)oc1 (stereo unspecified) ?
active

###

tested on: A549; assay: NCI tumour cell line growth inhibition, 48 h
The source made the active and inactive calls. Rule as the data show it: active = GI50 up to about 1.1 µM and inactive = higher.
Known GI50 of a selection of compounds

Worked cases, GI50 given:
compound	test_system	GI50
Cc1ccc(S(=O)(=O)NC2(C=O)CCCC3CCCCC32)cc1 (stereo not given)	A549	> 100 µM (inactive)
O=C(NCc1ccccc1Cl)c1c(O)c2ccccc2[nH]c1=O	A549	77.8 µM (inactive)
CCOC(=O)/C=C1\Oc2ccccc2C1(C)O (stereo not given)	A549	> 100 µM (inactive)
CCOC(=O)CCC(NC(=O)c1ccc(NCc2ccc3nc(-c4ccccc4)c(Cl)nc3c2)cc1)C(=O)OCC (stereo not given)	A549	47.8 µM (inactive)
Nc1ccc(-c2nn3c(COc4ccc(Cl)cc4)nnc3s2)cc1	A549	> 100 µM (inactive)
NC(=O)c1[nH]nc(C2OC(CO)C(O)C2O)c1O (stereo not given)	A549	0.6 µM (active)

Note to self: GI50 recorded for `CC/C=C(\C(=C/CC)[N+](=O)[O-])[N+](=O)[O-]` was 74.6 µM (inactive)

Note to self: GI50 recorded for `CSCCC(NC(=O)OCc1ccccc1)NC(=O)OCc1ccccc1` was > 100 µM (inactive)

Note to self: GI50 recorded for `COc1cc(C[C@H]2C(=O)OC[C@@H]2Cc2ccc(OC)c(OC)c2)cc(OC)c1` was 74.8 µM (inactive)

Note to self: GI50 recorded for `N#Cc1c(N)c(-c2ccc(Cl)cc2)c(F)c2ccccc12` was > 100 µM (inactive)

Note to self: GI50 recorded for CC(C)(O)/C=C/C(=O)[C@](C)(O)[C@H]1[C@H](O)C[C@@]2(C)[C@@H]3CC=C4[C@@H](C[C@H](O)C(=O)C4(C)C)[C@]3(C)C(=O)C[C@]12C [CUCURBITACIN D] was 0.177 µM (active)

Note to self: GI50 recorded for `CC/C=C/C[C@H](O[Si](C)(C)C(C)(C)C)[C@H]1C[C@H]2O[C@H]([C@@H](O)C#C[Si](C)(C)C)C[C@H]2O1` was 10.1 µM (inactive)

Note to self: GI50 recorded for Oc1nc(CC(O)c2ccc(Cl)c(Cl)c2)cc(-c2ccccc2)n1 (stereo not given) was 27.1 µM (inactive)

Note to self: GI50 recorded for C=CC1(C)CCC(C(C)C(=O)C(C=C(C)C)OC(C)=O)C12C(=O)Oc1ccccc1C2=O (stereo not given) was 35.7 µM (inactive)

Note to self: GI50 recorded for `Cc1nc2ccccc2cc1C[N+]12CN3CN(CN(C3)C1)C2` was 30.8 µM (inactive)

Note to self: GI50 recorded for C[C@]12CCC(=O)C=C1CC[C@@H]1C2CC[C@]2(C)NC(=O)C(C#N)CC12 (stereo not given in full) was > 100 µM (inactive)

Note to self: GI50 recorded for `CCC(CC)NC1=C(NC(C)=O)C(=O)c2ccccc2C1=O` was > 50 µM (inactive)

Note to self: GI50 recorded for Cc1c2n(c(=O)[nH]c1=O)C1OC(CO)C(O2)C1O (stereo not given) was > 100 µM (inactive)

Note to self: GI50 recorded for COC(=O)CCc1cc(O)c2c(c1)C(C(=O)OC)C(c1ccc(O)c(O)c1)O2 (stereo not given) was 43.4 µM (inactive)

Note to self: GI50 recorded for COc1ccc(C2c3cc4c(cc3OC(N3CCOCC3)C2C)OCO4)cc1OC (stereo not given) was 7.82 µM (inactive)
